meta.source: patent US20240270762A1

System: N. gonorrhoeae ATCC 49226
Experiment: Liquid broth MIC in Fastidious broth
Conditions: Neisseria gonorrhoeae, ATCC49226, read-out: Minimum Inhibitory Concentration (MIC), N. gonorrhoeae ATCC 49226
Readout label: MIC

Please fill in: MIC reported for O=C(NCCCN1CCN(C(=O)NC(C(=O)N[C@H]2Cc3ccc(F)c(C(=O)O)c3OB2O)c2cc(F)c(O)c(O)c2Cl)C(=O)C1=O)c1ccccc1 (stereo partly drawn) = 16 to 32 µg/mL

Please fill in: MIC reported for CN(CCN1CCN(C(=O)N[C@@H](C(=O)N[C@H]2Cc3ccc(F)c(C(=O)O)c3OB2O)c2cc(F)c(O)c(O)c2Cl)C(=O)C1=O)Cc1cccnc1 = 16 to 32 µg/mL

Please fill in: MIC reported for CC(C)(C)C(=O)NC(C(=O)N[C@H]1Cc2cccc(C(=O)O)c2OB1O)c1ccc(P(=O)(O)O)cc1 (stereo partly drawn) = 16 to 32 µg/mL

Please fill in: MIC reported for O=C(O)c1cccc2c1OB(O)[C@@H](NC(=O)C(NC(=O)N1CCN(Cc3ccc(O)c(O)c3Cl)C(=O)C1=O)c1ccc(P(=O)(O)O)cc1)C2 (stereo partly drawn) = < 1 µg/mL

Please fill in: MIC reported for O=C(NCCN1CCN(C(=O)NC(C(=O)N[C@H]2Cc3ccc(F)c(C(=O)O)c3OB2O)c2cc(F)c(O)c(O)c2Cl)C1=O)c1ccccc1 (stereo partly drawn) = 16 to 32 µg/mL

Please fill in: MIC reported for CCN1CCN(C(=O)NC(C(=O)N[C@H]2Cc3cccc(C(=O)O)c3OB2O)c2ccc(S(=O)(=O)O)cc2)C(=O)C1=O (stereo partly drawn) = < 1 µg/mL

Please fill in: MIC reported for O=C(NCCCN1CCN(C(=O)NC(C(=O)N[C@H]2Cc3ccc(F)c(C(=O)O)c3OB2O)c2cc(F)c(O)c(O)c2Cl)C(=O)C1=O)Nc1ccc(O)cc1 (stereo partly drawn) = 16 to 32 µg/mL

Please fill in: MIC reported for CS(=O)(=O)N1CCC[C@H]1C(=O)N[C@H](C(=O)N[C@H]1Cc2cccc(C(=O)O)c2OB1O)c1ccc(P(=O)(O)O)cc1 = 4 to 8 µg/mL

Please fill in: MIC reported for N#Cc1cccc(C(=O)N[C@@H](C(=O)N[C@H]2Cc3cccc(C(=O)O)c3OB2O)c2ccc(P(=O)(O)O)cc2)n1 = < 1 µg/mL

Please fill in: MIC reported for CS(=O)(=O)N1CCN(C(=O)NC(C(=O)N[C@H]2Cc3cccc(C(=O)O)c3OB2O)c2ccc(P(=O)(O)O)c(F)c2O)C1=O (stereo partly drawn) = < 1 µg/mL

Please fill in: MIC reported for O=C(NCCN1CCN(C(=O)NC(C(=O)N[C@H]2Cc3ccc(F)c(C(=O)O)c3OB2O)c2cc(F)c(O)c(O)c2Cl)C(=O)C1=O)c1ccncc1 (stereo partly drawn) = 16 to 32 µg/mL

Please fill in: MIC reported for NC(=O)c1ccc(C(=O)NC(C(=O)N[C@H]2Cc3cccc(C(=O)O)c3OB2O)c2ccc(P(=O)(O)O)cc2)nc1 (stereo partly drawn) = < 1 µg/mL
